Could you please report measured melting point for the items listed next?

Input line: Looking for the measured melting point of CCCCc1nc(C(O)C(C)C)c(C(N)=O)n1Cc1ccc(-c2ccccc2-c2nnn[nH]2)cc1 (stereo not given) , can you help?
Output line: 155 to 157 °C

Input line: I'd like to know its melting point. The compound in question is `Cc1nc(-c2ccccc2)ncc1CBr`
Output line: 65 to 66 °C

Input line: Give the measured melting point of `c1cc(-c2cnco2)cc(-c2ncc(-c3cccc(-c4cnc(-c5cccc(-c6cnco6)c5)o4)n3)o2)c1` .
Output line: 254 to 256 °C

Input line: Would you mind telling me what melting point value was observed for `Cc1cccc(N2CCOC2=O)c1CNc1cccn2c(C=O)c(C)nc12` ?
Output line: 196 to 197 °C

Input line: Recorded melting point for `COC(=O)c1cc(C(=O)Nc2ccncc2)c2cc(Cc3ccc(F)cc3)cnc2c1O` , please?
Output line: 266 to 267 °C

Input line: Using the record for `CCCCCC[C@@H]1C[C@H](c2ccc(O)cc2)C(=O)O1` , report its melting point.
Output line: 87 to 88 °C

Input line: For `COc1ccc(C(C)=Cc2ccncc2)c2c1OC(C)(C)C2` , what is its reported melting point?
Output line: 85 to 87 °C

Input line: # lookup: melting point of `COC(=O)c1ccc(C(=O)N2CCN(c3ncccc3N)CC2)cc1`
Output line: 144 °C

Input line: # melting point lookup, item `CCCn1c(=O)c2[nH]c(/C=C/c3ccc(OC)c4ccccc34)nc2n(CCC)c1=O`
Output line: > 280 °C

Consider the additional compound presented here.
Input line: I have this compound here, `COc1cc(N)c(Cl)cc1C(=O)NC1CCN(CC2CCN(C(N)=O)CC2)CC1` , and I need its recorded melting point.
Output line: 222 to 224 °C
